Source listed as patent US8354414B2.

molecular target: His6-GSK-3β (Homo sapiens, UniProt P49841); construct: made in house; host or cells: Sf21 insect cells (baculovirus); assay: Inhibition of His6-GSK-3β kinase activity (ELISA-based format, time-resolved fluorescence readout); assay type: biochemical; details: class symbols; read-out: GSK3β IC50
Sequence (P49841 2-419): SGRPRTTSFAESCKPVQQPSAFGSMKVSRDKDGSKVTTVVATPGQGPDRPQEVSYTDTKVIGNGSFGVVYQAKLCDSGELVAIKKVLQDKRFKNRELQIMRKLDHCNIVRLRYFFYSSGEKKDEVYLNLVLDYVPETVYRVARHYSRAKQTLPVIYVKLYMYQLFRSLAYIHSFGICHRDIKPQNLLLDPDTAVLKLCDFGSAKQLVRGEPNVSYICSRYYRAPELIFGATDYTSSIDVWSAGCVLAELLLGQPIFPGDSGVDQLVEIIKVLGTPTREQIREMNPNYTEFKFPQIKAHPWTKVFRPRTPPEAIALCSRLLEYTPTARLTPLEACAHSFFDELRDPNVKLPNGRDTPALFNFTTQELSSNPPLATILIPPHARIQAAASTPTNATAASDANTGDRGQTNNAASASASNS
Structures can show the parent of a compound that is named as a salt.
Listing of recorded IC50 by entry.

compound	IC50
N#Cc1ccc2c(c1)C(c1nc(NCc3ccc(Cl)nc3)nc3nn(C4CCCC4)cc13)C(=O)N2 (centres unmarked)	< 300 nM
O=C1Nc2cc(F)ccc2C1c1ncnc2nn(C3CCCC3)cc12 (centres unmarked)	300 to 3000 nM
CCCn1cc2c(C3C(=O)Nc4ccc(Br)cc43)nc(NCCCN(C)C)nc2n1 (centres unmarked)	< 300 nM
O=C1Nc2ccc(Br)cc2C1c1nc(NCCN2CCOCC2)nc2c1CCC2 (centres unmarked)	300 to 3000 nM
N#Cc1ccc2c(c1)C(c1nc(Nc3ccc(F)nc3)nc3c1CCC3)C(=O)N2 (centres unmarked)	> 10000 nM
N#Cc1ccc2c(c1)C(c1nc(NCCN3CCCC3)nc3nn(C4CCCC4)cc13)C(=O)N2 (centres unmarked)	< 300 nM
CCCn1cc2c(C3C(=O)Nc4ccc(Br)cc43)nc(NC[C@@H](C)N)nc2n1 (some centres unmarked)	< 300 nM
CNCCCNc1nc(C2C(=O)Nc3ccc(C(F)(F)F)cc32)c2cn(C3CCCC3)nc2n1 (centres unmarked) [Example 253, hydrochloride salt]	< 300 nM
O=C1Nc2ccc(F)cc2C1c1nc(NCCN2CCOCC2)nc2c1CCC2 (centres unmarked)	> 10000 nM
CN(C)CCCNc1nc(C2C(=O)Nc3ccc(C#N)cc32)c2cn(C3CCCC3)nc2n1 (centres unmarked)	< 300 nM

Short answer for CN(C)CCCNc1nc2c(c(C3C(=O)Nc4ccc(C#N)cc43)n1)CCC2 (centres unmarked) : IC50 was 300 to 3000 nM

Short answer for O=C1Nc2cc(F)ccc2C1c1ncnc2nn(C3CCCCC3)cc12 (centres unmarked) : IC50 was 300 to 3000 nM

Short answer for N#Cc1ccc2c(c1)C(c1nc(N3CCN(CCCc4ccccc4)CC3)nc3nn(C4CCCC4)cc13)C(=O)N2 (centres unmarked) : IC50 was < 300 nM
